Assay: In vitro skin permeation of radiolabelled SPPs in Franz diffusion cells
Type: in vitro ADME, porcine
Settings: peptide amount after 24 hours, 37° C.
Where a SMILES comes first, the peptide text is derived from it. Bridges are numbered along the chain shown (N, C = ends).
Collected Skin permeation, Dermis values appear next to each entry.

| compound | Skin permeation, Dermis [μg/cm^2] |
| --- | --- |
| CC(C)C[C@@H]1NC(=O)[C@@H](NC(=O)[C@H](C)N)CSSC[C@@H](C(=O)NCC(=O)O)NC(=O)[C@H](C)NC(=O)[C@H](CC(N)=O)NC(=O)[C@H](Cc2c[nH]cn2)NC(=O)[C@H](CC(N)=O)NC(=O)[C@H](C(C)C)NC(=O)[C@H](CO)NC1=O [SP7-3, ACLSVNHNACG] (H-ACLSVNHNACG-OH; disulfide 2-10; N-terminus and C-terminus assumed) | 39.5 |
| C[C@H](N)C(=O)N[C@H]1CSSC[C@@H](C(=O)NCC(=O)O)NC(=O)[C@H](CC(N)=O)NC(=O)[C@H](Cc2c[nH]cn2)NC(=O)[C@H](CC(N)=O)NC(=O)[C@H]([C@@H](C)O)NC(=O)[C@H](CO)NC(=O)[C@H](C)NC(=O)[C@H](CO)NC1=O [SP7-5, ACSASTNHNCG] (H-ACSASTNHNCG-OH; disulfide 2-10; N-terminus and C-terminus assumed) | 124.3 |
| CC(C)C[C@@H]1NC(=O)[C@H]([C@@H](C)O)NC(=O)[C@H](C)NC(=O)[C@H](CO)NC(=O)[C@@H](NC(=O)[C@H](C)N)CSSC[C@@H](C(=O)NCC(=O)O)NC(=O)[C@H](CO)NC(=O)[C@H](Cc2c[nH]cn2)NC(=O)[C@H](CCC(N)=O)NC1=O [SP7-1, ACSATLQHSCG] (H-ACSATLQHSCG-OH; disulfide 2-10; N-terminus and C-terminus assumed) | 149.7 |
| C[C@H](N)C(=O)N[C@H]1CSSC[C@@H](C(=O)NCC(=O)O)NC(=O)[C@H](C)NC(=O)[C@H](CC(N)=O)NC(=O)[C@H](CCCNC(=N)N)NC(=O)CNC(=O)[C@H]([C@@H](C)O)NC(=O)[C@H](CO)NC(=O)[C@H]([C@@H](C)O)NC1=O [SP7-4, ACTSTGRNACG] (H-ACTSTGRNACG-OH; disulfide 2-10; N-terminus and C-terminus assumed) | 53.7 |
| CC(C)C[C@@H]1NC(=O)[C@H](CO)NC(=O)[C@@H](NC(=O)[C@H](C)N)CSSC[C@@H](C(=O)NCC(=O)O)NC(=O)[C@H](CC(N)=O)NC(=O)[C@H](Cc2c[nH]c3ccccc23)NC(=O)[C@H](CC(N)=O)NC(=O)[C@H](C(C)C)NC(=O)[C@H]([C@@H](C)O)NC1=O [SP7-2, ACSLTVNWNCG] (H-ACSLTVNWNCG-OH; disulfide 2-10; N-terminus and C-terminus assumed) | 166.7 |
